FYI, the data here is from patent US20120114652A1.

Property: IC50 chromogenic; scope: individual binders
- Target under test: T1, rat PAI-1 (rat, UniProt P20961 24-402)
- T1 sequence: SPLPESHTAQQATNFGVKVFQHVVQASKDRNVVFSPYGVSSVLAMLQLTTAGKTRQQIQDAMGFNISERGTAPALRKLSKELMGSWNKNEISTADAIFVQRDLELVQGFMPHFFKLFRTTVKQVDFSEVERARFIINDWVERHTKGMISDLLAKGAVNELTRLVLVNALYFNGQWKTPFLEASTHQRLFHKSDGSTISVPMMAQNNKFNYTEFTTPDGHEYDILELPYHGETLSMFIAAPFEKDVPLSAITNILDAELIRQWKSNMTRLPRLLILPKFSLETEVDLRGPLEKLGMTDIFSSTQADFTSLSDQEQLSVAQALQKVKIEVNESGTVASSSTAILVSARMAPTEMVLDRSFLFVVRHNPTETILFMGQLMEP
- Procedure summary: cell-based or functional assay
Lab book: enter the figure in nM, no units written.

Example entries begin here.
Antibody 02, scFv (scFv, V domains shown) VH: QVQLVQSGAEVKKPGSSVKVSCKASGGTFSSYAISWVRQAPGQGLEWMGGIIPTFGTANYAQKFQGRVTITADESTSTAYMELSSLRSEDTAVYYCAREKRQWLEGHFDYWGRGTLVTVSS VL: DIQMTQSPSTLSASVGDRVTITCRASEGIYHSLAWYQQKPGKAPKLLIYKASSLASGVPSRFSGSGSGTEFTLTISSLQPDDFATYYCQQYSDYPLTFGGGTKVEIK; 530
Antibody 01, scFv (scFv, V domains shown) VH: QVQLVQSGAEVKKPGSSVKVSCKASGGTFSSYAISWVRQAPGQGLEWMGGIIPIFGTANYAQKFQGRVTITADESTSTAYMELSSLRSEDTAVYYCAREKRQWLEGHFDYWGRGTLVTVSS VL: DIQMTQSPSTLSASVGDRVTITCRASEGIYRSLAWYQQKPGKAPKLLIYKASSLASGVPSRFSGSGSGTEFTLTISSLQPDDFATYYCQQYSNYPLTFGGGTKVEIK; 208
Antibody 23, scFv (scFv, V domains shown) VH: QVQLQQSGAEVKKPGSSVKVSCKASGGTFSSYAISWVRQAPGQGLEWMGGIIPTFGTANYAQKFQSRVTITADESTSTAYMELSGLRSEDTAVYYCAREKRQWLEGHFDYWGRGTPVTVSS VL: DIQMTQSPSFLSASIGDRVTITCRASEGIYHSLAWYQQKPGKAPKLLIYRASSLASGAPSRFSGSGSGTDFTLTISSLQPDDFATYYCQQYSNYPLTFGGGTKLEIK; 376

Consider the binder shown here: Antibody 17, scFv (scFv, V domains shown) VH: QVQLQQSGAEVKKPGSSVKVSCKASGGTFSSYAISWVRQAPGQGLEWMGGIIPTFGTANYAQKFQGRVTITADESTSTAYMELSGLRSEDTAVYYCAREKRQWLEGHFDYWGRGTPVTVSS VL: DIQMTQSPSFLSASIGDRVTITCRASEGIYHELAWYQQKPGKAPKLLIYRASSLASGAPSRFSGSGSGTDFTLTISSLQPDDFATYYCQQYSNYPLTFGGGTKLEIK What is its recorded IC50 chromogenic? 24.9

Antibody 18, scFv (scFv, V domains shown) VH: QVQLQQSGAEVKKPGSSVKVSCKASGGTFSSYAISWVRQAPGQGLEWMGGIIPTFGTANYAQKLQGRVTITADESTSTAYMELSGLRSEDTAVYYCAREKRQWLEGHFDYWGRGTPVTVSS VL: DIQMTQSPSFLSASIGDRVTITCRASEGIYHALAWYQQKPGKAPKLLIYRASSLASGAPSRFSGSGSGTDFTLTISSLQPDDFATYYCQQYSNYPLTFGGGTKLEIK , same question. 238
